Tested on: SNB-78
Assay: NCI tumour cell line growth inhibition, 48 h
The source made the active and inactive calls. Rule as the data show it: active = GI50 up to about 1.1 µM and inactive = higher. Square brackets hold non-standard residues; d marks the D form. Peptide text beside a SMILES is read from it. * marks the point of attachment. ξ: configuration not given here. NMeN = CN[C@@H](CC(N)=O)C(=O)O; NMeV = CN[C@H](C(=O)O)C(C)C; ξNMeV = CNC(C(=O)O)C(C)C; Boc = CC(C)(C)OC(=O)*; ξNMeA = CNC(C)C(=O)O
QUANTITY MEASURED: GI50

// GI50 value for COc1ccc(C)cc1C1CCC(=O)O1 (stereo unspecified) : > 100 µM (inactive)

// GI50 value for "CCOC(=O)c1ncoc1[C@H]1COC(C)(C)O1" : > 100 µM (inactive)

// GI50 value for CCC1=NC(CO)[C@H](c2ccccc2)O1 (stereo partly specified) : > 100 µM (inactive)

// GI50 value for COC(=O)N(C(=O)OC)C(C(=O)O)C(C)C (stereo unspecified) : > 100 µM (inactive)

// GI50 value for CC1CC(=O)C2CC(CO)=CCCC2C1(C)CC/C(=C/CO)CO (stereo unspecified) : > 100 µM (inactive)

// GI50 value for COc1ccc(C2=Nc3ccccc3SC(C)C2)cc1OC (stereo unspecified) : 27.4 µM (inactive)

For each of the molecules below, state GI50.
1. COC(=O)C(C)N(C)C(=O)[C@H](CC(N)=O)N(C)C(=O)[C@@H]1CCCN1C(=O)[C@H](C(C)C)N(C)C(=O)C(C(C)C)N(C)C(=O)[C@@H](NC(=O)OC(C)(C)C)C(C)C (stereo partly specified) (Boc-V[ξNMeV][NMeV]P[NMeN][ξNMeA]-OMe)
2. O=C1Nc2ccc(Br)cc2/C1=N/Nc1ccc([N+](=O)[O-])cc1[N+](=O)[O-]
3. C#C[C@H]1CCCCCC1O (stereo partly specified)
4. COc1cccc(-c2nccc3c(OCc4ccccc4)c(OC)c(OC)cc23)c1
5. COC(=O)/C=C1\CCC(C)O1 (stereo unspecified)

Result string:
> 100 µM (inactive)
4.51 µM (inactive)
> 100 µM (inactive)
63.1 µM (inactive)
> 100 µM (inactive)

For each of the molecules below, state GI50.
1. COc1cc(/C=C2\CCC(C)(CN(C)C)C2=O)cc(OC)c1OC (stereo unspecified)
2. CCCCCCCCCCCc1noc2c1C(=O)C(O)CC2 (stereo unspecified)
3. COc1cc(C(C)c2cc3c(cc2OCCCCOc2cc4c(cc2C(C)c2cc(OC)c(OC)c(OC)c2)OCO4)OCO3)cc(OC)c1OC (stereo unspecified)
4. CC(=O)NNc1nc(C)c(C(=O)NNC(=O)C(=O)Nc2ccc(Cl)cc2)s1
5. O=C1C2Cc3ccccc3CN2C(=O)N1CN1CCN(CN2C(=O)C3Cc4ccccc4CN3C2=O)CC1 (stereo unspecified)
6. CN(NC1OC(CO)C(O)C(O)C1O)c1ccccc1 (stereo unspecified)

Result string:
> 44.7 µM (inactive)
24.4 µM (inactive)
20.1 µM (inactive)
> 100 µM (inactive)
> 100 µM (inactive)
> 100 µM (inactive)

For each of the molecules below, state GI50.
1. CC1=NN(C(=O)Cc2ccccc2)C(=O)/C1=C\C=C\c1ccccc1
2. Nc1ccc(/N=N/c2ccc(/C=C/c3ccc(/N=N/c4ccc(N)c5ccc(S(=O)(=O)O)cc45)cc3S(=O)(=O)O)c(S(=O)(=O)O)c2)c2cc(S(=O)(=O)O)ccc12
3. N#Cc1cccc(/C=N/C23CC4CC(CC(C4)C2)C3)c1
4. c1ccc(N2N=C(c3ccco3)CC2c2ccco2)cc1 (stereo unspecified)

Result string:
["83.6 µM (inactive)", "> 100 µM (inactive)", "> 100 µM (inactive)", "> 100 µM (inactive)"]

These measurements were taken from ChEMBL document CHEMBL1201862.
